Can you tell me koff for the items I'm about to list?
# study system: T1, Mammalian expressed extracellular human RON protein (Gly25 to Thr957) with His-tag (human, UniProt Q04912 25-957)
# T1 construct: Expressed in ExpiCHO cells, purified on nickel; Position of the His-tag is told inconsistently; Written as one chain; also called RON ECD; RON ECD antigen; not shown: His-tag
# T1 sequence: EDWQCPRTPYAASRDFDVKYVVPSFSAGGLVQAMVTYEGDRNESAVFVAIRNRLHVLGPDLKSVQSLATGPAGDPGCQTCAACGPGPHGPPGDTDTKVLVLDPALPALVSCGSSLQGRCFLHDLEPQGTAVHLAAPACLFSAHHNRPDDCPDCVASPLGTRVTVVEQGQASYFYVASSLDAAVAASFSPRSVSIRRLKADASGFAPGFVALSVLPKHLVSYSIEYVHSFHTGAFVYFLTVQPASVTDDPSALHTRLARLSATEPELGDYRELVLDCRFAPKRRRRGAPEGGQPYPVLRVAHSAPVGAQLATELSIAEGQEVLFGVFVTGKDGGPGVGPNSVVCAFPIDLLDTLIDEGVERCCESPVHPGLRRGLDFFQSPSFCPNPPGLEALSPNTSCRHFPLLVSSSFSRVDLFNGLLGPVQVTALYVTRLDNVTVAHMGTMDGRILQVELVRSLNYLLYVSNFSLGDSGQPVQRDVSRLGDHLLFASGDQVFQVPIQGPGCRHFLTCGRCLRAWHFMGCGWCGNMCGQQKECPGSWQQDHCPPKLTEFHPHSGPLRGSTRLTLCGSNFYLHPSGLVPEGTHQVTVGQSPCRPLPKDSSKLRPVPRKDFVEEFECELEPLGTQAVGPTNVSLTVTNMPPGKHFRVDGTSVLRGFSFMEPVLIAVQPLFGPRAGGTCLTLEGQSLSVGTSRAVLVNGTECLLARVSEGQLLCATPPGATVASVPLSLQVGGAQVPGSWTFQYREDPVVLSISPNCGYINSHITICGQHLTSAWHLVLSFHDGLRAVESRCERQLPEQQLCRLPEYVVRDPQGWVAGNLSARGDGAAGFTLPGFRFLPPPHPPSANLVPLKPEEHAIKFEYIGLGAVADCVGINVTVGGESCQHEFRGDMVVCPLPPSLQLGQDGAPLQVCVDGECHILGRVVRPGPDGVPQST
# measurement notes: KinExA, RON-HIS
Respond with a number, then the unit of measure.

[Q] Please list koff recorded for the binder 6A9 (antibody, V domains shown, Mouse monoclonal antibody from a hybridoma; kappa light chain; also called Antibody 6A9; anti-RON antibody 6A9) VH: EVKLEESGPGLLKPSQSLSLTCTVTGSSITSDYAWNWIRQFPGNKLEWMGYIGYSVGTSHNPSLKGRISITRDTSKNQFFLHLNSVTTEDTAIYYCARRPLYFYYAMDFWGQGTSVTVSS VL: DIVLTQSPSSLSASLGDRVTITCRASQDISKYLNWYQQKPDGTVKLLIYYTSTLHSGVPSRFSGSGSGTDFSLTITNLEQEDIATYFCQQGNTLPRTFGGGTKLEIK
[A] 0.00228 s⁻¹

[Q] Please list koff recorded for the binder 7H11 (antibody, V domains shown, Mouse monoclonal antibody from a hybridoma; kappa light chain; also called Antibody 7H11; anti-RON antibody 7H11) VH: EVKLEQSGPELVKPGASVKISCKASGYTFTDYNMHWVRQPPGQSLEWIGFIYPYNGNSGYNPNFKTKATLTMDISSSTAYMEVRNLTSEDSATYFCASLYYLGYFDVWGAGTTVTVSS VL: DIVLTQSPVSLAVSLGQRATISCRASKSVSTSAYNFMHWYQQKPGQPPKLLIYLASNLESGVPARLSGSGSGTDFTLNIHPVEEEDAATYYCQHSRELPYTFGGGTKLEIKR
[A] 0.000286 s⁻¹

[Q] Please list koff recorded for the binder 3F8 (antibody, V domains shown, Mouse monoclonal antibody from a hybridoma; kappa light chain; also called Antibody 3F8; anti-RON antibody 3F8) VH: EVKLQESGGGLVQPGRSLKLSCVASGFTFSSFWMHWVRQSPEKGLEWVAEIRLKSNNYATHYAESVKGRFTISRDDSKSSVHLQMNNLRTEDTGIYYCIPPYYYTVDYWGQGTSVTVSS VL: DIVLTQTPKVMSTSVGDRVSVTCKASQNVNTNVAWYQQKPGQSPKALIYSASSRYSGVPDRFTGSGSGTDFTLTISNVQSEDLADYFCQQYNTYPLTFAAGTKLELK
[A] 0.000358 s⁻¹

[Q] Please list koff recorded for the binder 10G1 (antibody, V domains shown, Mouse monoclonal antibody from a hybridoma; kappa light chain; also called Antibody 10G1; anti-RON antibody 10G1) VH: EVKLEQSGGGLVQPGGSRKLSCAASGFTFSSFGMHWVRQAPEKGLEWVAYISGGSGTFYYADTVKGRFTISRDNPKNTLFLQMTSLRSEDTAIYYCARSTTVLDYWGQGTTLTVSS VL: DIVLTQTPSSMYAFLGERVTIICKASQDINNYLNWVQQKPGKAPKTLIYHADRLADGVPSRFSGSGSGQDYSLTISSLEYEDMGIYYCLQYDDFPPFTFGSGTKLEIK
[A] 0.000121 s⁻¹

The values you see were collected from patent US20220372125A1.
